Each entry below carries its reported melting point.
READOUT_LABEL: melting point

MOLECULE: O=C(O)c1cccn1-c1ccc(F)cc1
RESULT: 195 to 196 °C
--
MOLECULE: COc1ccccc1-c1c(O)c2ccc(Cl)cc2[nH]c1=O
RESULT: > 300 °C
--
MOLECULE: C=CCC1(C(=O)NCCC)c2ccccc2CCc2ccccc21
RESULT: 76 to 79 °C
--
MOLECULE: CCn1c(=O)c(-c2cc(OC)cc(OC)c2)cc2cnc(Nc3ccncc3)nc21
RESULT: 305 to 307 °C
--
MOLECULE: Nc1cccc(N2C(=O)CCCC2c2ccc(Cl)c(Cl)c2)c1 (stereo not given)
RESULT: 202 to 203 °C
--
MOLECULE: C=C(C)OC(=O)N1c2cc(Cl)ccc2NC(=S)[C@@H]1C
RESULT: 148 to 150 °C
--
MOLECULE: Cc1ccc(C2COc3cc(O)ccc3C2c2ccc(OCCN3CCCC3)cc2)cc1 (stereo not given)
RESULT: 161 to 165 °C
--
MOLECULE: CC(=NOCCCOc1ccc(CC(=O)O)cc1)c1ccc(C(C)(C)C)cc1
RESULT: 98.7 to 99.7 °C
--
MOLECULE: COC(=O)CN(N)c1cc(C)cc(C)c1
RESULT: 56 to 58 °C
--
MOLECULE: COc1cc(-c2cc(=O)c3cccnc3o2)ccc1O
RESULT: 253 to 255 °C

====

Each entry below carries its reported melting point.

COMPOUND: CC(C)n1nc(-c2nc(C3=CCCN(C)C3)c(N)nc2-c2ccccc2)ccc1=O
melting point: 191 to 193 °C

COMPOUND: CON1CCC2(CC1)C(OCc1ccccc1)=C(c1c(C)cc(C)cc1C)C(=O)N2CC1CC1
melting point: 119 to 121 °C

COMPOUND: O=Cc1ccc(OCc2ccccc2)c([N+](=O)[O-])c1
melting point: 100 to 102 °C

COMPOUND: COC(=O)C(Oc1ccc(OCc2ccccc2)cc1)c1ccc(Oc2ccc(Cl)cc2)cc1 (stereo not given)
melting point: 88 to 90 °C

COMPOUND: CCOC(=O)C1(C(=O)OCC)CCC2(CC1)c1cc(OCC)c(OCC)cc1CCN2C(=O)OCc1ccccc1
melting point: 88.4 to 89.1 °C

====

Each entry below carries its reported melting point.

MOLECULE: CCn1nc(C)cc1N
melting point: 95 to 96 °C
//
MOLECULE: CC(C)(C)OC(=O)N1CCC(c2ccc(Nc3nc4c(-c5cnn(-c6ccc(F)cc6)c5)cccn4n3)cc2)CC1
melting point: 176 to 178 °C
//
MOLECULE: ClC1=Nc2cc(Br)ccc2Oc2cscc21
melting point: 196 to 197 °C
//
MOLECULE: COc1ccc([N+](=O)[O-])c2c1CCC(C(=O)Nc1ccc(N3CCOCC3)cc1)C2 (stereo not drawn)
melting point: 251 to 253 °C
//
MOLECULE: CN(Cc1cc(C(F)(F)F)cc(C(F)(F)F)c1)C(=O)c1c(-c2ccc(F)cc2)c2ccc(=O)n(C)c2c(=O)n1C
melting point: 210 to 212 °C
//
MOLECULE: CC(C)c1ccc(N2CC(=O)N(c3cccc(C(=O)O)c3)C2=O)cc1
melting point: 224 to 226 °C
//
MOLECULE: Clc1ccc2[nH]c3c(c2c1)CCN1CCCC=C31
melting point: 114 °C
//
MOLECULE: CCC(=O)CCSc1cc(C(C)(C)C)c(O)c(C(C)(C)C)c1
melting point: 76 to 79 °C
//
MOLECULE: O=S(=O)(Nc1cccnc1Nc1ccccc1)c1ccc(Oc2ccccc2)cc1
melting point: 164 to 166 °C
//
MOLECULE: CC(=O)OC1CSC(Oc2cccc(I)c2)C(OC(C)=O)C1OC(C)=O (stereo not drawn)
melting point: 127 °C
//
MOLECULE: O=C(O)COc1cccc(CN2C(=O)C3(COc4cc5c(cc43)CCO5)c3ccccc32)c1 (stereo not drawn)
melting point: 95 to 96 °C
//
MOLECULE: COc1cc(C2=CCN(S(=O)(=O)CC(=O)NO)CC2)ccc1-c1ccccc1
melting point: 175 to 177 °C
//
MOLECULE: O=C(O)c1ccc(OCC2CCCC2Nc2ccc(Cl)cc2)cc1 (stereo not drawn)
melting point: 153 to 156 °C
